Assay: self-splicing fitness, log relative to wild type (ln ratio); higher = more splicing; Tetrahymena group I intron in knt gene, E. coli kanamycin selection, DiMSum; sequences stand for … in CUCUCU…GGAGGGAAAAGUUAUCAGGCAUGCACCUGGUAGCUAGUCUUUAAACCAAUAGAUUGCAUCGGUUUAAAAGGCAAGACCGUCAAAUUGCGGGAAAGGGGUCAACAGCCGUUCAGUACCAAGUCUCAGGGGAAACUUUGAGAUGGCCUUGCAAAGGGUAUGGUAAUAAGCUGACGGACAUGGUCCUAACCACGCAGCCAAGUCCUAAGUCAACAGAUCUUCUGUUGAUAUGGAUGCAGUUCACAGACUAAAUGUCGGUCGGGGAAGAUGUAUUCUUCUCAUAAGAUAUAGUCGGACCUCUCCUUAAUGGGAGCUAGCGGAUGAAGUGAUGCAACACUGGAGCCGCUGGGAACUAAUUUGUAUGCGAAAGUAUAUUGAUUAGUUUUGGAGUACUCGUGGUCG;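 further: selection with 25 µg/mL kanamycin versus none on LB agar overnight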
Settings: 30 °C
Listing: self-splicing fitness (ln) of selected sequences
quantity.measured: self-splicing fitness (ln)

sequence_content=GAGAAGCAAUAUUACGAUCG readout_value=-0.334
sequence_content=UGGCAGCAAUAUUACGUUUC readout_value=-3.1
sequence_content=UAUAAGCAAUAUUACGAAAA readout_value=-1.72
sequence_content=AGGUAGCAAUAUUACGAGCC readout_value=-0.991
sequence_content=GUUUAGCAAUAUUACGAAUG readout_value=-1.2
sequence_content=UCAAAGCAAUAUUACGACCG readout_value=-0.525
sequence_content=GUAGAGCAAUAUUACGAGCU readout_value=-2.67
sequence_content=UGAAAGCAAUAUUACGGGGA readout_value=-1.92
sequence_content=ACAUAGCAAUAUUACGGCCU readout_value=-0.828
sequence_content=GGAAAGCAAUAUUACGCAUA readout_value=-0.868
sequence_content=CUACAGCAAUAUUACGCCGG readout_value=-2.19
sequence_content=GGACAGCAAUAUUACGAGAU readout_value=-3.03
sequence_content=CCCUAGCAAUAUUACGCCGC readout_value=-3.7
sequence_content=CUUUAGCAAUAUUACGUUUA readout_value=-3.03
sequence_content=AUUGAGCAAUAUUACGUUGA readout_value=-3.86
sequence_content=UCCAAGCAAUAUUACGAAAG readout_value=-2.45
sequence_content=UUUGAGCAAUAUUACGAGCU readout_value=-2.69
sequence_content=ACGAAGCAAUAUUACGAAUU readout_value=-3.63
sequence_content=CAAUAGCAAUAUUACGCCAG readout_value=-1.21
sequence_content=UAGAAGCAAUAUUACGUUCU readout_value=-1.61
sequence_content=CUCUAGCAAUAUUACGGACG readout_value=-0.959
sequence_content=CUCGAGCAAUAUUACGUUGA readout_value=-3.86
sequence_content=GUUUAGCAAUAUUACGCCUA readout_value=-0.696
sequence_content=GUAAAGCAAUAUUACGUGUU readout_value=-2.69
sequence_content=UAUAAGCAAUAUUACGGACG readout_value=0.119
sequence_content=CGUUAGCAAUAUUACGACGG readout_value=0.168
sequence_content=ACGCAGCAAUAUUACGUCGA readout_value=-2.34
sequence_content=CCACAGCAAUAUUACGGAGG readout_value=-3.92
sequence_content=GACUAGCAAUAUUACGAACG readout_value=-1.34
sequence_content=GCGUAGCAAUAUUACGAUUA readout_value=-0.494
sequence_content=UACAAGCAAUAUUACGCCUC readout_value=-3.38
sequence_content=CUUCAGCAAUAUUACGGUGA readout_value=-3.2
sequence_content=GUGCAGCAAUAUUACGAAGG readout_value=-2.59
sequence_content=ACCUAGCAAUAUUACGCCUU readout_value=-1.43

src = the supplement of paper PMC7877785
